The following compounds are listed with their measured MIC values.
Test system: Histoplasma capsulatum
Assay: Antifungal activity against Histoplasma capsulatum assessed as growth inhibition after 3 days by standard broth dilution technique
Format: functional
Conditions: 72 h
EXPERIMENTAL_ENDPOINT: MIC (µg/mL)

[[record]]
compound = "CC[C@H]1O[C@@H](/C(C)=C/[C@H](C)/C=C/[C@H]2[C@@H](C)[C@@H]2/C=C/[C@@H]2O[C@H](CC(O)(c3ccccc3)c3ccccc3)C[C@H](O)[C@H]2O)CC=C1C"
unit_spec = "µg/mL"
value_reported = 50

[[record]]
compound = "CC[C@H]1O[C@@H](/C(C)=C/[C@H](C)/C=C/[C@H]2[C@@H](C)[C@@H]2/C=C/[C@@H]2O[C@H](CC(=O)C(C)(C)C)C[C@H](O)[C@H]2O)CC=C1C"
unit_spec = "µg/mL"
value_reported = 12.5

[[record]]
compound = "CCC(O)C[C@@H]1C[C@H](O)[C@@H](O)[C@H](/C=C/[C@H]2[C@H](C)[C@@H]2/C=C/[C@@H](C)/C=C(\\C)[C@H]2CC=C(C)[C@@H](CC)O2)O1 (stereo partly drawn)"
unit_spec = "µg/mL"
value_reported = 0.78


###

Tested on: Histoplasma capsulatum
Assay: Antifungal activity against Histoplasma capsulatum assessed as growth inhibition after 3 days by standard broth dilution technique
Format: functional
Conditions: 72 h
Reported values of MIC for individual entries
EXPERIMENTAL_ENDPOINT: MIC (µg/mL)

[[record]]
smiles_input = "CC[C@H]1O[C@@H](/C(C)=C/[C@H](C)/C=C/[C@H]2[C@@H](C)[C@@H]2/C=C/[C@@H]2O[C@H](CC(O)(CC)CC)C[C@H](O)[C@H]2O)CC=C1C"
value_reported = 1.56

[[record]]
smiles_input = "CC[C@H]1O[C@@H](/C(C)=C/[C@H](C)/C=C/[C@H]2[C@@H](C)[C@@H]2/C=C/[C@@H]2O[C@H](CC(C)=O)C[C@H](O)[C@H]2O)CC=C1C"
value_reported = 0.39

[[record]]
smiles_input = "CC[C@H]1O[C@@H](/C(C)=C/[C@H](C)/C=C/[C@H]2[C@@H](C)[C@@H]2/C=C/[C@@H]2O[C@H](CC(=O)OC)C[C@@H](O)[C@H]2O)CC=C1C"
value_reported = 0.39

[[record]]
smiles_input = "CC[C@H]1O[C@@H](/C(C)=C/[C@H](C)/C=C/[C@H]2[C@@H](C)[C@@H]2/C=C/[C@@H]2O[C@H](CC(=O)O)C[C@H](O)[C@H]2O)CC=C1C"
value_reported = 0.39


###

Test system: Histoplasma capsulatum
Test: Antifungal activity against Histoplasma capsulatum assessed as growth inhibition after 3 days by standard broth dilution technique
Format: functional
Settings: 72 h
The compounds listed here are annotated with their MIC.
EXPERIMENTAL_ENDPOINT: MIC (µg/mL)

[[record]]
smiles_input = "CC[C@H]1O[C@@H](/C(C)=C/[C@H](C)/C=C/[C@H]2[C@@H](C)[C@@H]2/C=C/[C@@H]2O[C@H](CCO)CC(=O)[C@H]2O)CC=C1C"
unit_spec = "µg/mL"
value_reported = 6.25

[[record]]
smiles_input = "CC[C@H]1O[C@@H](/C(C)=C/[C@H](C)/C=C/[C@H]2[C@@H](C)[C@@H]2/C=C/[C@@H]2O[C@H](CCO)C[C@@H](O)[C@H]2O)CC=C1C"
unit_spec = "µg/mL"
value_reported = 0.39

[[record]]
smiles_input = "CC[C@H]1O[C@@H](/C(C)=C/[C@H](C)/C=C/[C@H]2[C@@H](C)[C@@H]2/C=C/[C@@H]2O[C@H](CC(=O)c3ccccc3)C[C@H](O)[C@H]2O)CC=C1C"
unit_spec = "µg/mL"
value_reported = 6.25

